Quick reference: EC50 of the listed items.
# System: CEM-CCRF human lymphoblast cells
# PROTOCOL_NOTES: Transwell migration assay in CEM-CCRF lymphoblasts
# Type: cell-based
# ASSAY_CONTEXT: Homo sapiens; read-out: Migration CEM EC50

Example compounds with recorded EC50:
# COMPOUND, EC50
rows = [
    ("COc1ccccc1-c1nnc2n1N=C(c1ccc(N(C)C)cc1)CS2 [Entry 13]", "< 5 µM"),
    ("CCOc1ccccc1-c1nnc2n1N=C(c1ccc(C(=O)Nc3ccccc3)cc1)CS2 [Entry 69]", "< 5 µM"),
    ("CCOc1ccccc1-c1nnc2n1N=C(c1ccc(NC(=O)c3ccccc3)cc1)CS2 [Entry 34]", "< 5 µM"),
    ("CCOc1ccccc1-c1nnc2n1N=C(c1ccc(NC(=O)c3ccc(C(=O)OC)cc3)cc1)CS2 [Entry 37]", "> 10 µM"),
]

Next compound, EC50 to be filled in.
Recorded EC50 for C=CCOc1ccc(C2=Nn3c(nnc3-c3ccccc3OCC)SC2)cc1 [Entry 7] , please? < 5 µM

----------
# Tested on: CEM-CCRF human lymphoblast cells
# PROTOCOL_NOTES: Transwell migration assay in CEM-CCRF lymphoblasts
# Assay type: cell-based
# ASSAY_CONTEXT: Homo sapiens
Quick reference: Emax of the listed items.

Example molecules with recorded Emax:
# MOLECULE, READOUT_TYPE, VALUE_OBSERVED
data = [
    ("CCOc1ccccc1-c1nnc2n1N=C(c1ccc(N3CCCC3=O)cc1)CS2", "Emax", "35 to 70%"),
    ("CCOc1ccccc1-c1nnc2n1N=C(c1ccc(OC)cc1)CS2", "Emax", "35 to 70%"),
    ("CCOc1ccccc1-c1nnc2n1N=C(c1ccc(NCC(=O)O)cc1)CS2 [Entry 40a]", "Emax", "23%"),
    ("COc1ccccc1-c1nnc2n1N=C(c1ccc(SC)cc1)CS2", "Emax", "35 to 70%"),
]

Next molecule, Emax to be filled in.
Recorded Emax for CCOc1ccccc1-c1nnc2n1N=C(c1ccc(C(=O)OC)cc1)CS2 , please? 35 to 70%

----------
# EXPERIMENTAL_SYSTEM: CXCR4 (Homo sapiens, UniProt P61073)
# Sequence (P61073 whole entry): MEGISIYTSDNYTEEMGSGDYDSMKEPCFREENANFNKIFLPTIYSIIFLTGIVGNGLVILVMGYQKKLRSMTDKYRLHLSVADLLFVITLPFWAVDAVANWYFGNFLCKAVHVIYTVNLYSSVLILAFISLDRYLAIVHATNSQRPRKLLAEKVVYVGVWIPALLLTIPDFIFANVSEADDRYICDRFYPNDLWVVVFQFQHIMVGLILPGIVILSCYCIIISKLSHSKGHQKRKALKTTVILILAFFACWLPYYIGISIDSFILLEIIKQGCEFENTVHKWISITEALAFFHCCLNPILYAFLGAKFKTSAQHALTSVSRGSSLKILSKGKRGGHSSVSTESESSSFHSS
# PROTOCOL_NOTES: β-arrestin recruitment, 384-well, Tango CXCR4-bla U2OS cells, normalized to SDF-1α
# Format: cell-based
# Design: host or cells: U2OS
# ASSAY_CONTEXT: U2OS; normalized to SDF-1; read-out: TANGO β-arrestin Emax (%)
READOUT_TYPE: Emax

Recorded Emax for CCOc1ccccc1-c1nnc2n1N=C(c1ccc(C(=O)OC)cc1)CS2 [Entry 71] , please? < 35%

Recorded Emax for CCOc1ccccc1-c1nnc2n1N=C(c1ccc(C(=O)Nc3ccccc3)cc1)CS2 [Entry 69] , please? < 35%

Recorded Emax for CCCCOc1ccc(C2=Nn3c(nnc3-c3ccccc3OC)SC2)cc1 [Entry 5] , please? < 35%

Recorded Emax for CCOc1ccccc1-c1nnc2n1N=C(c1ccc(OC)c(OC)c1)CS2 [Entry 57] , please? 35 to 70%

Recorded Emax for COCCOc1ccc(C2=Nn3c(nnc3-c3ccccc3OC)SC2)cc1 [Entry 8] , please? < 35%

Recorded Emax for CCOc1ccccc1-c1nnc2n1N=C(c1ccc(OC(F)(F)F)cc1)CS2 [Entry 10] , please? > 70%

Recorded Emax for CCOc1ccccc1-c1nnc2n1N=C(c1ccc(N3CCC3)cc1)CS2 [Entry 28] , please? 35 to 70%
